Molecular target: GluA2/3 AMPA receptor subunits (flip isoform) (Homo sapiens, UniProt P42262+P42263)
Construct: expressed in transfected cells; host or cells: HEK293
Sequence (P42262 25-883 isoform P42262-2 limits assumed): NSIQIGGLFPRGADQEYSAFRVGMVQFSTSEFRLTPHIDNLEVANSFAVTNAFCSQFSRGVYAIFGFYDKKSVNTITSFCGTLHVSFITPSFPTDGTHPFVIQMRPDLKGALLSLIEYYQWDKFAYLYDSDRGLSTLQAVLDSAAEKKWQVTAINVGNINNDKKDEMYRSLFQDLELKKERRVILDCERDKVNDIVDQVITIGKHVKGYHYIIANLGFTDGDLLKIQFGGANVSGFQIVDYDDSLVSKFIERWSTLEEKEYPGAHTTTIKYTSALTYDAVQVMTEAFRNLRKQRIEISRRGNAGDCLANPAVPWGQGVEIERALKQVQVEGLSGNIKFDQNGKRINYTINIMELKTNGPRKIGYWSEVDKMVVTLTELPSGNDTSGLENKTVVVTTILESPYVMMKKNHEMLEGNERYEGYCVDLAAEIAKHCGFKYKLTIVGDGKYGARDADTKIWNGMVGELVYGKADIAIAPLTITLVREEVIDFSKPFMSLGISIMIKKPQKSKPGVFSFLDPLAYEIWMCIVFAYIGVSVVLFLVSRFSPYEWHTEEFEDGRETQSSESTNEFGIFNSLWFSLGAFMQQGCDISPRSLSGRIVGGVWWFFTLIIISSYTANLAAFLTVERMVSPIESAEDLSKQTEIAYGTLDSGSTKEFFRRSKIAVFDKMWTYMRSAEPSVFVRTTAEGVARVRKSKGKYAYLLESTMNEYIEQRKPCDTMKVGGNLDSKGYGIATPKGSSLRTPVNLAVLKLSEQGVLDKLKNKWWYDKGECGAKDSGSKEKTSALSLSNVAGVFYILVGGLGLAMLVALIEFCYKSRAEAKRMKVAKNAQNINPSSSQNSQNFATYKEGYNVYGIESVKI
Sequence (P42263 29-894 isoform P42263-2 limits assumed): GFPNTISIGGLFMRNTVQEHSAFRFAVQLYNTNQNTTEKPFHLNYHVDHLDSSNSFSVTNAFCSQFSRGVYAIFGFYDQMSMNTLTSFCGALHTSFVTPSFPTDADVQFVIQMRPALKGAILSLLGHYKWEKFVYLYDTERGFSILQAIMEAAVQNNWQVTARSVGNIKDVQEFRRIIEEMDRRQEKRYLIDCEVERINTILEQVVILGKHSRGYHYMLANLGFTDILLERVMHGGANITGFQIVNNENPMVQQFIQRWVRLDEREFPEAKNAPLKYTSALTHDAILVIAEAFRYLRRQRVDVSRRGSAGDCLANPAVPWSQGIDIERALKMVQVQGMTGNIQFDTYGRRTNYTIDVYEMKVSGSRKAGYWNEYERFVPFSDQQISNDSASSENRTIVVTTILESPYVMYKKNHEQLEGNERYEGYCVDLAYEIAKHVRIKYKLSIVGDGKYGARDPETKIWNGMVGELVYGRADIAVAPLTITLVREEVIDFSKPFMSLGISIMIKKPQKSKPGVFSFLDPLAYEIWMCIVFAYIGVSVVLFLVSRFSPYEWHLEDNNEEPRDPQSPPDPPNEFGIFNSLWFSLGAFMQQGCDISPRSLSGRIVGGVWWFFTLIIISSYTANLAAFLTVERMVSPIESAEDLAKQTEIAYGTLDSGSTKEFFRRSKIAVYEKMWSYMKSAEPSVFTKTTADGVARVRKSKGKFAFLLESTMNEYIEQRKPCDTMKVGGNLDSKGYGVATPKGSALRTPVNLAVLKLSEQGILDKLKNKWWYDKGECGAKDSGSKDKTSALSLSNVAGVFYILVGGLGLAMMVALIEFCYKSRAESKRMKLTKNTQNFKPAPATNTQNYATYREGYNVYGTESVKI
Assay: Whole-cell patch-clamp electrophysiology, heteromeric GluA2/3 expressed in HEK293 cells
Format: cell-based
Conditions: glutamate + 12 µM compound, glutamate alone 2.4±0.3 ms
Give measured t deact (weighted deactivation time constant) for each item. Keep answers brief.
State the answer as a number, implicitly in ms.

// t deact (weighted deactivation time constant) lookup, compound = O=C(CCCCC1CCSS1)OCCCCCCO[N+](=O)[O-] (centres unmarked) [LA3, 1-Nitrooxy–Hexane-6-lipoyl ester] , result: 7.6

Lab note: measured t deact (weighted deactivation time constant) of O=C(CCCCC1CCSS1)OCCCO (centres unmarked) [LA1, 1-Hydroxy-3-Lipo Ester] was 10.1

t deact (weighted deactivation time constant) reading for O=C(CCCCC1CCSS1)OCCCO[N+](=O)[O-] (centres unmarked) [LA2, 1-Nitrooxy–propane-3-lipoyl ester] : 10.8

Summary for this compound, O=C(CCCCC1CCSS1)OCCCCCCO (centres unmarked) [LA4, 1-Hydroxy-6-Lipoester] : t deact (weighted deactivation time constant) is 6.9

Quick note, t deact (weighted deactivation time constant) for O=C(O)CCCCC1CCSS1 (stereo not drawn) [α-LA, alpha-Lipoic acid, reference compound] landed at 8.6

Where these numbers come from: paper PMC9688225
